Test system: NIH3T3
Test: Cytotoxic Profiling of Annotated Libraries Using Quantitative High-Throughput Screening (AID 1296008); also: % is scaled to controls: 0 for no effect and ±100 for the full control effect; nearly all actives have a fitted effect of over 60% in size
Conditions: Five cell lines viability, CellTiter-Glo ATP luminescence, 48-72 h; active compounds read low
Records with an inconclusive call do not appear.
Values of max response strictly less than -20% map to 1, and values of at least -20% map to -1.

| molecule | class-label |
| --- | --- |
| CC(=O)OC1/C(C)=C/C(=O)C(OC(C)=O)C(C)(C)/C=C/C(C)C(=O)C2(OC(C)=O)CC(C)C(OC(=O)c3ccccc3)C12 (stereo not given) | -1 |
| CC(=O)OC1C(c2ccccc2)CCC(c2ccccc2)C1OC(C)=O (stereo not given) | -1 |
| COc1cc(/C=C/C=O)cc(OC)c1O[C@@H]1O[C@H](CO)[C@@H](O)[C@H](O)[C@H]1O | 1 |
| COc1c2cc(c(O)c1OC)-c1cc(ccc1O)CCC(O)CCCC2 (stereo not given) | -1 |
| C/C=C1\[C@H](OC2OC(COC3OC(CO)C(O)C(O)C3O)C(O)C(O)C2O)OC=C(C(=O)OC)[C@H]1CC(=O)OCCc1ccc(O)cc1 (stereo not given in full) | 1 |
